- studyTarget: human Hv1 channel (Homo sapiens, UniProt Q96D96)
- assayMethodText: Inside-out patch clamp of proton currents, Xenopus oocytes expressing human Hv1
- Type: cell-based
testReadout: IC50

Any idea what its IC50 is? The molecule is N=C(N)Nc1nc2ccccc2o1 [Compound 11, 1-(1,3-benzoxazol-2-yl)guanidine]
~9 mM

* * *

- studyTarget: human Hv1 channel (Homo sapiens)
- Sequence (Q96D96 1-273): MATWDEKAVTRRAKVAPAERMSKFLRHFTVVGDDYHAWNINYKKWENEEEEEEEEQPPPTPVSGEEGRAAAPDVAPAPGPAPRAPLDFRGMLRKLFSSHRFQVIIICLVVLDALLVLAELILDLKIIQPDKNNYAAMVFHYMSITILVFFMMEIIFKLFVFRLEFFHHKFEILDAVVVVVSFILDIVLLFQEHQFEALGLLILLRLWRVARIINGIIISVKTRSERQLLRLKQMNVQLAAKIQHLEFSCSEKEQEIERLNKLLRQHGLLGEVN
- assayMethodText: Inside-out patch clamp of proton currents, Xenopus oocytes expressing human Hv1
- Assay type: cell-based
- testContext: wild type Hv1; GBOZ curve extrapolated above solubility limit
pIC50: −log10 of the molar value.
testReadout: pIC50

Form entry - test system: human Hv1 channel (Homo sapiens); read-out: pIC50; compound: [Mg+2] [magnesium, reference compound]
~2.05

* * *

- studyTarget: human Hv1 channel (Homo sapiens, UniProt Q96D96)
- assayMethodText: Inside-out patch clamp of proton currents, Xenopus oocytes expressing human Hv1
- Assay type: cell-based
- testContext: 200 µM intracellular, inside-out patch, +120 mV
testReadout: Inhibition of Hv1 proton current compared with 2GBI

CC(=O)N(C(=N)NC(=N)N)c1ccccc1 : not as effective as 2GBI
CN(C)C(=N)N=C(N)N [Compound 8, metformin, reference compound] : not as effective as 2GBI
Cc1nc(NC(=N)N)nc2ccccc12 : not as effective as 2GBI
